- Target Desc: TIP48/TIP49 complex (Homo sapiens, UniProt Q9Y230+Q9Y265)
- Sequence (Q9Y230 whole entry): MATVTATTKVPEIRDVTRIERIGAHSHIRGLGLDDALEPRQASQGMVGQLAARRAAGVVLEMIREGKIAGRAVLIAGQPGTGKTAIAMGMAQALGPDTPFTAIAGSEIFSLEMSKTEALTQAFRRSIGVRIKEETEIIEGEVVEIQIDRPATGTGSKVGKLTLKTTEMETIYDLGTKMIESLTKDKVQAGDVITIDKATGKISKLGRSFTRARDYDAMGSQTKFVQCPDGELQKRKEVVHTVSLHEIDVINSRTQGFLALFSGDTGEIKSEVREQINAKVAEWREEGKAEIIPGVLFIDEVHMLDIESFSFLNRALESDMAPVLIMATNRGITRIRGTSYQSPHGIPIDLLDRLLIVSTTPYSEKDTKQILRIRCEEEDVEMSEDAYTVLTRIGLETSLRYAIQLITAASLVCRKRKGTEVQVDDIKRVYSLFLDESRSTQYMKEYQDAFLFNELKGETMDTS
- Sequence (Q9Y265 whole entry): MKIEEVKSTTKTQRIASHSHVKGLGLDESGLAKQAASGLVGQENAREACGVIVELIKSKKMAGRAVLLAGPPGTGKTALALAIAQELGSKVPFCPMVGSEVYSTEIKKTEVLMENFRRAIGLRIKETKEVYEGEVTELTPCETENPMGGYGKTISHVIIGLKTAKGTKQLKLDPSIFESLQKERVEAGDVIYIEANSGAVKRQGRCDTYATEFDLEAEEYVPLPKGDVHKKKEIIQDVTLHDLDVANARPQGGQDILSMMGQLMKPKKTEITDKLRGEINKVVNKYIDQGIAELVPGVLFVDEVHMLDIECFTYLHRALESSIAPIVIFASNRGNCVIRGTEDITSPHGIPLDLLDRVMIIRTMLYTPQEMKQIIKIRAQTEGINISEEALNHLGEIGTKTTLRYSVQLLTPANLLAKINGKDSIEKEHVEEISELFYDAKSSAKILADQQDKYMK
- Experimental Details: ATPase assay of TIP48/TIP49 complex (ADP-Glo)
- Test Conditions: concentration at which the ATPase activity was inhibited by 50%
Under this convention, 1 (yes) denotes IC50 strictly below 0.06 µM and 0 (no) denotes IC50 at or above 0.06 µM.

Solved entries (count: 5):
Does CCC(C)(CC(=O)Nc1cc(Cl)ccc1OC)CC(=O)Nc1c(C)n(C)n(-c2ccccc2)c1=O (stereo not shown) [Example 99] have IC50 strictly under 0.06 µM? 0 (no)

Does Cc1c(NC(=O)CC(C)(C)CNC(=O)c2cc(Cl)ccc2OC2CC2)c(=O)n(-c2ccccc2)n1C [Example 96] have IC50 strictly under 0.06 µM? 1 (yes)

Does CCOc1cc(F)c(Cl)cc1C(=O)NCC(C)(C)CC(=O)Nc1c(CCNC)n(C)n(-c2ccccc2)c1=O [Example 34] have IC50 strictly under 0.06 µM? 1 (yes)

Does CCOc1ccc(Cl)cc1C(=O)NCC(C)(C)CC(=O)Nc1c(CCNC(=O)OC(C)(C)C)n(C)n(-c2ccccc2)c1=O [Example 10] have IC50 strictly under 0.06 µM? 1 (yes)

Does CCOc1ncc(Cl)cc1C(=O)NCC(C)(C)CC(=O)Nc1c(C(C)NC)n(C)n(-c2ccccc2)c1=O (stereo not shown) [Example 2] have IC50 strictly under 0.06 µM? 0 (no)

Now take the following compound into account.
Does Cc1c(NC(=O)CC(C)(C)CNC(=O)c2cc(Cl)cc3c2OCCC3)c(=O)n(-c2ccccc2)n1C [Example 106] have IC50 strictly under 0.06 µM? 1 (yes)
